// data source = the supplement of paper PMC9170038

# key: entry, value: apparent KD of MS2 coat protein
- Tested on: MS2 coat protein
- Assay Overview: apparent KD of MS2 coat protein; designed switch direction (-1 OFF switch, 1 ON switch): -1; higher = weaker reporter binding
- Particulars: input ligand: none
Record the value in nM, omitting the unit from your answer.

Item Sequence	apparent KD of MS2 coat protein, nM
GUCUCACAUGAGGAUCACCCAUGUGAGGAUAUGGUUUCGCUGGCCGUAGCCAGUGGAACCAGAAGGCGCAUGAU [Mat - Exclusion 1 - JL Mod - D3] (Eterna round: R97, puzzle: Exclusion 1)	23
CCAUAUAGGAGAGGAUAUACGCACCACUAACUAGUAGAAGGCUCACAUGAGGAUCACCCAUGUGAUUUCUCAAUAUUAUACAUC [Prohibition 73 - Jieux - Exclusion NG 1] (Eterna round: R96, puzzle: Exclusion NG 1)	34.8
ACAUGAGGAUCACCCAUGUGCACGUAAUGGCUCAUGUAGAGUGAGGAUAUGCGUGGCGAACGCGCGCAGAAGGCACAAGACUGG [Deportation 18 - Jieux - Exclusion NG 3] (Eterna round: R96, puzzle: Exclusion NG 3)	99.7

Find the measured apparent KD of MS2 coat protein of UUUAUGCUAGGAUAUGCACCCUCGAACAUGAGGAUCACCCAUGUACAAUAAACGCAUGGAGCAGAAGGAGCUCCGA [EX5 A.5] (Eterna round: R97, puzzle: Exclusion 5) and report it.
86.7
